System: CP305
protocol details: qHTS profiling for inhibitors of Plasmodium falciparum proliferation (AID 504749); further: nearly all actives have a fitted effect of over 60% in size
condition set: P. falciparum in erythrocytes, SYBR Green DNA, 72 h; series mostly up to 28.7 µM
Records with an inconclusive call do not appear. Calls of active or inactive are those of the source. The call rests on the fitted dose curve; in most records, active means well fitted inhibition curve with a large enough effect; inconclusive means small, poorly fitted or top-dose-only effect; inactive means flat fitted curve, though single readings scatter.
quantity name: outcome

compound: C/C1=C2/[N-]C(C(CC(N)=O)[C@@]2(C)CCC(=O)NCC(C)OP(=O)([O-])O[C@H]2[C@@H](O)[C@@H](n3cnc4cc(C)c(C)cc43)O[C@@H]2CO)[C@]2(C)N=C(/C(C)=C3N=C(/C=C4N=C1C(CCC(N)=O)C\4(C)C)[C@@H](CCC(N)=O)[C@]\3(C)CC(N)=O)[C@@H](CCC(N)=O)[C@]2(C)CC(N)=O.CC(=O)O.[Co] (some centres undefined)
observed result: inactive
//
compound: CCCCC(=O)O[C@]1(C(=O)CO)CCC2C3CCC4=CC(=O)CCC4(C)C3C(O)CC21C (some centres undefined)
observed result: inactive
//
compound: Cc1cnc(C(=O)O)cn1
observed result: inactive
//
compound: CNC(=O)C(N)CSC(C)C1=C(C)c2cc3[n-]c(cc4nc(cc5[n-]c(cc1n2)c(C)c5CCC(=O)O)C(CCC(=O)O)=C4C)c(C)c3C(C)SCC(N)C(=O)NC.[Fe+2] (centres undefined)
observed result: inactive

----------
System: DIV14
protocol details: qHTS profiling for inhibitors of Plasmodium falciparum proliferation (AID 504749); further: nearly all actives have a fitted effect of over 60% in size
condition set: P. falciparum in erythrocytes, SYBR Green DNA, 72 h; series mostly up to 28.7 µM
Records with an inconclusive call do not appear. Calls of active or inactive are those of the source. Calls follow the shape of the dose curve; as a rule, active = well fitted inhibition curve with a large enough effect; inconclusive = small, poorly fitted or top-dose-only effect; inactive = flat fitted curve, though single readings scatter.
Possible outcomes: 1 (active), 0 (inactive)

compound: OC[C@@H]1O[C@](CO)(O[C@H]2O[C@H](CO)[C@@H](O)[C@H](O)[C@H]2O)[C@H](O)[C@H]1O
assigned category: 0
//
compound: CO/N=C(/C(=O)N[C@@H]1C(=O)N2C(C(=O)O)=C(CSc3nc(C)c(CC(=O)O)s3)CS[C@H]12)c1csc(N)n1
assigned category: 0
//
compound: Cc1ccc(S(=O)(=O)NC(=O)NC(C)Cc2ccccc2)cc1 (stereo not given)
assigned category: 0
//
compound: CC[C@@]1(O)CC2CN(CCc3c([nH]c4ccccc34)[C@](C(=O)OC)(c3cc4c(cc3OC)N(C)C3[C@@](O)(C(=O)OC)C(OC(C)=O)[C@]5(CC)C=CCN6CC[C@@]43C65)C2)C1 (stereo not given in full)
assigned category: 1
//
compound: CC(=O)NC[C@@H]1CN(c2ccc(N3CCOCC3)c(F)c2)C(=O)O1
assigned category: 0
//
compound: C[C@H](O)[C@@H]1C(=O)N2C(C(=O)O)=C(SCCN=CN)C[C@@H]12
assigned category: 0
//
compound: C=CCN1CC(C(=O)N(CCCN(C)C)C(=O)NCC)CC2c3cccc4[nH]cc(c34)CC21 (stereo not given)
assigned category: 1
//
compound: CC(=O)N1CC(O)CC1C(=O)O (stereo not given)
assigned category: 0
//
compound: CC(=O)NC1[C@H]([C@H](O)[C@H](O)CO)OC(C(=O)O)=C[C@H]1N=C(N)N (stereo not given in full)
assigned category: 0
//
compound: CC[C@@H]1/C=C(\C)C[C@H](C)C[C@H](OC)[C@H]2O[C@@](O)(C(=O)C(=O)N3CCCC[C@H]3C(=O)O[C@H](/C(C)=C/[C@@H]3CC[C@H](Cl)[C@H](OC)C3)[C@H](C)[C@@H](O)CC1=O)[C@H](C)C[C@@H]2OC
assigned category: 0
